biological target: Human STING (Homo sapiens, UniProt Q86WV6, G230A/H232R/R293Q/R71H); construct: host or cells: THP1-Dual KO-IFNAR2 cells (human monocytic reporter line); test: STING reporter assay (luciferase) in THP1-Dual KO-IFNAR2 cells stimulated with 2′3′cGAMP; type: cell-based; conditions: 2′3′cGAMP 15 μM, 24 h, class symbols
Sequence (Q86WV6 whole entry R71H/G230A/H232R/R293Q): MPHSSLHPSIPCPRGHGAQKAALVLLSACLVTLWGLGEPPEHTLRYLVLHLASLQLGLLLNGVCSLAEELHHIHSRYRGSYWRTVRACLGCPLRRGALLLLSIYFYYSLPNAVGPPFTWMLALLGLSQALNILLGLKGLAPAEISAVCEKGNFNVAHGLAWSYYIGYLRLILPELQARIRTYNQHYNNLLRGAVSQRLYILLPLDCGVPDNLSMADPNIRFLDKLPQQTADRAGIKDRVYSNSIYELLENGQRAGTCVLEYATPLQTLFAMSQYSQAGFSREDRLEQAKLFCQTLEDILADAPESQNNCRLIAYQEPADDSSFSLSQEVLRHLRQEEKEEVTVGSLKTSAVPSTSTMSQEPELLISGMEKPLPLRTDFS
Reported EC50 values for a set of compounds

### Prompt Fill in EC50 for record `CC(C)c1ccc(S(=O)(=O)Nc2c[nH]c3cc(F)c(F)cc23)cc1`
### Response 5 to 100 µM

### Prompt Quickly give me recorded EC50 for `O=S(=O)(Nc1c[nH]nc1-c1ccccc1)c1ccc(C(F)(F)F)cc1`
### Response 5 to 100 µM

###

molecular target: Human STING (Homo sapiens, UniProt Q86WV6, G230A/H232R/R293Q/R71H); construct: host or cells: THP1-Dual KO-IFNAR2 cells (human monocytic reporter line); assay: STING reporter assay (luciferase) in THP1-Dual KO-IFNAR2 cells stimulated with 2′3′cGAMP; format: cell-based; conditions: 2′3′cGAMP 15 μM, 24 h, numeric bound
measurement.label: EC50

### Prompt Give the reported value of EC50 for this record: CC1CNCCC1NS(=O)(=O)c1c[nH]c2nccc(Cl)c12 (stereo not shown) [Compound 112]
### Response > 100 µM

###

Biological target: Human STING (Homo sapiens, UniProt Q86WV6, G230A/H232R/R293Q/R71H)
Construct: host or cells: THP1-Dual KO-IFNAR2 cells (human monocytic reporter line)
Test: STING reporter assay (luciferase) in THP1-Dual KO-IFNAR2 cells stimulated with 2′3′cGAMP
Assay type: cell-based
Conditions: 2′3′cGAMP 15 μM, 24 h, class symbols
Method: STING pathway activation by the compounds described herein was measured using THP1-Dual™ cells (KO-IFNAR2). […] 2 mL of solution A and 2 ml Solution B was mixed and incubated for 20 min at room temperature (RT). […] Luciferase reporter activity was then measured. EC50 values were calculated by using standard methods known in the art. […] Luciferase reporter activity was then measured. EC50 values were calculated by using standard methods known in the art.
pEC50: −log10 of the molar value.
A collection of compounds and their measured pEC50

>  <sample.smiles>
CCCCCCCCS(=O)(=O)Nc1c[nH]c2cc(F)c(F)cc12

>  <measurement.label>
pEC50

>  <measurement>
5.30 to 6.00

$$$$
>  <sample.smiles>
O=S(=O)(Nc1c[nH]c2cc(F)c(F)cc12)c1ccc2c(c1)CCC2

>  <measurement.label>
pEC50

>  <measurement>
4.00 to 5.30

$$$$
>  <sample.smiles>
O=S(=O)(Cc1cccc(C(F)(F)F)c1)Nc1c[nH]c2cc(F)c(F)cc12

>  <measurement.label>
pEC50

>  <measurement>
4.00 to 5.30

$$$$

### Prompt GET pEC50 | system: Human STING (Homo sapiens, UniProt Q86WV6, G230A/H232R/R293Q/R71H) | item: `O=S(=O)(Nc1c[nH]c2cc(F)c(F)cc12)c1ccc2c(c1)CCCC2`
### Response 4.00 to 5.30
